FYI, the data here is from paper PMC5540273.

System: PIKFYVE
Conditions: concentration: 1 μM,replicates: in singlicate; n = 1;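 further: KINOMEscan kinase panel screen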
propertyName: %Inh (%)
Just the number please, in %, no unit attached.

The examples below pair each entry with its known result.
INSERT INTO measurements (molecule, systemname, assayvalue) VALUES
  ('Cc1occc1-c1nc(N)c(OC[C@@H](N)Cc2c[nH]c3ccccc23)cc1-c1cc2c(C)n[nH]c2cn1 [GSK1660450]', 'PIKFYVE', 0),
  ('Cc1cc2cn[nH]c2cc1-c1cccc2c(N)c(C(N)=O)nnc12', 'PIKFYVE', 0),
  ('COc1ccc(C[C@@H](CN)NC(=O)c2cc(Br)c(-c3ccnc4[nH]ccc34)s2)cc1.Cl.Cl [GSK1389063]', 'PIKFYVE', 0);

// next entry
Return %Inh measured with PIKFYVE given this molecule: C[C@@H](Oc1cc(-c2cnn(C3CCNCC3)c2)cnc1N)c1c(Cl)ccc(F)c1Cl
5

###

System: OSR1
Construct: gene OXSR1
Conditions: concentration: 1 μM,replicates: in singlicate; n = 1
propertyName: %Inh (%)
Just the number please, in %, no unit attached.

The examples below pair each entry with its known result.
INSERT INTO measurements (molsmiles, unitspec, assayvalue) VALUES
  ('Nc1nc(Nc2ccccc2)cc(-c2ccc3c(N)n[nH]c3c2)n1', '%', 14),
  ('CN(C)CCOc1ccc(-c2cc(-c3c[nH]nc3-c3ccccn3)ccn2)cc1', '%', 0),
  ('Cc1cc(C(=O)Nc2ccc(Oc3ccc4nc(NC(=O)C5CC5)cn4n3)cc2)nn1-c1ccccc1', '%', 0),
  ('CCN(CC)CCOc1ccc(Nc2ncc3cc(-c4c(Cl)cccc4Cl)c(=O)n(C)c3n2)cc1', '%', 16),
  ('COc1ccc(C[C@@H](CN)NC(=O)c2cc(Br)c(-c3ccnc4[nH]ccc34)s2)cc1.Cl.Cl', '%', 34),
  ('C[C@@H](Oc1cc(-c2cnn(C3CCNCC3)c2)cnc1N)c1c(Cl)ccc(F)c1Cl', '%', 36),
  ('Cl.Cl.NC[C@H](CC1CCCCC1)NC(=O)c1cc(Br)c(-c2ccnc3[nH]ccc23)s1', '%', 20),
  ('Cc1ccc2c(-c3ccncc3)c(-c3ccc(F)cc3)nn2c1.Cl', '%', 0),
  ('Cl.Cl.NC[C@H](Cc1ccc(C(F)(F)F)cc1)NC(=O)c1cc(Br)c(-c2ccnc3[nH]ccc23)s1', '%', 0),
  ('CCN(CC)CCCCNc1ncc2cc(-c3c(Cl)cccc3Cl)c(NC(=O)NC(C)(C)C)nc2n1', '%', 0);

Return %Inh measured with OSR1 given this compound: C=CC(=O)Nc1cc2c(Nc3ccc(F)c(Cl)c3)ncnc2cc1OCCCN1CCOCC1
0

Return %Inh measured with OSR1 given this compound: O=C(NCCCN1CCOC1=O)c1cnc(NCc2cc(Cl)ccc2Cl)nc1NC1CCCC1
0

Return %Inh measured with OSR1 given this compound: C[C@H]1Oc2cc(cnc2N)-c2c(nn(C)c2C#N)CN(C)C(=O)c2ccc(F)cc21
0

Return %Inh measured with OSR1 given this compound: C[C@@H]1CCN(C(=O)CC#N)C[C@@H]1N(C)c1ncnc2[nH]ccc12
0

Return %Inh measured with OSR1 given this compound: O=C(NCCNc1ccnc(NCc2ccc(F)cc2)n1)c1cc2ccccc2s1
11

Return %Inh measured with OSR1 given this compound: NC(=O)c1cc(-c2ccccc2)cc2c(C3CCNCC3)c[nH]c12
14

Return %Inh measured with OSR1 given this compound: CC(C)N1C(=O)Cc2cc(Nc3ncc(C(F)(F)F)c(NCc4cccc(S(C)(=O)=O)c4)n3)ccc21
5

###

%Inh listing for selected molecules.
Tested on: SGK
Details: concentration: 1 μM,replicates: in singlicate; n = 1
Just the number please, in %, no unit attached.

INSERT INTO results (molecule, propertyname, assayvalue) VALUES
  ('Cc1ccc2c(-c3ccncc3)c(-c3ccc(F)cc3)nn2c1.Cl', '%Inh', 0),
  ('CC(C)Nc1cc(-c2ccc3c(N)n[nH]c3c2)nc(N)n1', '%Inh', 0),
  ('Cl.Oc1cc(-c2nc(-c3ccccc3)[nH]c2-c2ccncc2)ccc1Cl', '%Inh', 9);

# input molecule: Cc1n[nH]c2ccc(-c3cc(OC[C@@H](N)Cc4ccccc4)cnc3-c3ccoc3)cc12.O=C(O)C(F)(F)F.O=C(O)C(F)(F)F ; wanted: its %Inh
18

# input molecule: CCN(CC)CCCCNc1ncc2cc(-c3c(Cl)cccc3Cl)c(NC(=O)NC(C)(C)C)nc2n1 ; wanted: its %Inh
0

###

Test system: JAK3(JH1domain-catalytic)
Conditions: concentration: 1 μM,replicates: in singlicate; n = 1
propertyName: %Inh (%)
Just the number please, in %, no unit attached.

The examples below pair each entry with its known result.
INSERT INTO assay_data (molsmiles, unitspec, assayvalue) VALUES
  ('Cc1ccc2c(-c3ccncc3)c(-c3ccc(F)cc3)nn2c1.Cl', '%', 0),
  ('Cc1n[nH]c2ccc(-c3cc(OC[C@@H](N)Cc4ccccc4)cnc3-c3ccoc3)cc12.O=C(O)C(F)(F)F.O=C(O)C(F)(F)F', '%', 39),
  ('CN(C)CCOc1ccc(-c2cc(-c3c[nH]nc3-c3ccccn3)ccn2)cc1', '%', 0);

// next entry
Return %Inh measured with JAK3(JH1domain-catalytic) given this compound: CCn1c(-c2nonc2N)nc2c(C#CC(C)(C)O)nc(OCCN)cc21.Cl.Cl
0

###

System: FGFR4
Details: concentration: 1 μM,replicates: in singlicate; n = 1
%Inh listing for selected compounds.
Just the number please, in %, no unit attached.

INSERT INTO assay_data (molsmiles, propertyname, assayvalue) VALUES
  ('C[C@@H]1CCN(C(=O)CC#N)C[C@@H]1N(C)c1ncnc2[nH]ccc12', '%Inh', 0),
  ('C=CC(=O)Nc1cc2c(Nc3ccc(F)c(Cl)c3)ncnc2cc1OCCCN1CCOCC1', '%Inh', 0);

# input compound: Cl.Cl.NC[C@H](Cc1ccc(C(F)(F)F)cc1)NC(=O)c1cc(Br)c(-c2ccnc3[nH]ccc23)s1 ; wanted: its %Inh
57

# input compound: C[C@@H](Oc1cc(-c2cnn(C3CCNCC3)c2)cnc1N)c1c(Cl)ccc(F)c1Cl ; wanted: its %Inh
0

# input compound: Cl.Oc1cc(-c2nc(-c3ccccc3)[nH]c2-c2ccncc2)ccc1Cl ; wanted: its %Inh
0

# input compound: CCN(CC)CCCCNc1ncc2cc(-c3c(Cl)cccc3Cl)c(NC(=O)NC(C)(C)C)nc2n1 ; wanted: its %Inh
28

# input compound: CC(C)N1C(=O)Cc2cc(Nc3ncc(C(F)(F)F)c(NCc4cccc(S(C)(=O)=O)c4)n3)ccc21 ; wanted: its %Inh
16

# input compound: Cc1ccc2c(-c3ccncc3)c(-c3ccc(F)cc3)nn2c1.Cl ; wanted: its %Inh
4

###

Tested on: CAMK2G
Conditions: concentration: 1 μM,replicates: in singlicate; n = 1
propertyName: %Inh (%)
Just the number please, in %, no unit attached.

The examples below pair each entry with its known result.
INSERT INTO measurements (compound, unitspec, assayvalue) VALUES
  ('CNC(=O)c1ccccc1Sc1ccc2c(/C=C/c3ccccn3)n[nH]c2c1', '%', 12),
  ('CCn1c(-c2nonc2N)nc2c(C#CC(C)(C)O)nc(OCCN)cc21.Cl.Cl [GSK902056]', '%', 10),
  ('CC(C)N1C(=O)Cc2cc(Nc3ncc(C(F)(F)F)c(NCc4cccc(S(C)(=O)=O)c4)n3)ccc21', '%', 0);

# input compound: CCN(CC)CCOc1ccc(Nc2ncc3cc(-c4c(Cl)cccc4Cl)c(=O)n(C)c3n2)cc1 [SB-601273] ; wanted: its %Inh
29

# input compound: C[C@@H]1CCN(C(=O)CC#N)C[C@@H]1N(C)c1ncnc2[nH]ccc12 ; wanted: its %Inh
0

###

Tested on: NEK9
Settings: concentration: 1 μM,replicates: in singlicate; n = 1
%Inh strictly less than 1% = true (1). Otherwise false (0).

Some entries whose results are on file:
INSERT INTO results (molsmiles, systemname, assignedcategory) VALUES
  ('Cl.Cl.NC[C@H](Cc1ccc(C(F)(F)F)cc1)NC(=O)c1cc(Br)c(-c2ccnc3[nH]ccc23)s1', 'NEK9', 'false (0)'),
  ('CCN(CC)CCOc1ccc(Nc2ncc3cc(-c4c(Cl)cccc4Cl)c(=O)n(C)c3n2)cc1', 'NEK9', 'false (0)'),
  ('Cl.Oc1cc(-c2nc(-c3ccccc3)[nH]c2-c2ccncc2)ccc1Cl', 'NEK9', 'true (1)');

With those in mind, consider the next molecule.
Lab log: compare recorded %Inh with 1%; is it strictly lower for C[C@@H](Oc1cc(-c2cnn(C3CCNCC3)c2)cnc1N)c1c(Cl)ccc(F)c1Cl ?
false (0)
